Source listed as ChEMBL document CHEMBL4706509.

Test system: HepG2
Method: Antitumor activity against human HepG2 cells assessed as inhibition of cell growth measured after 48 hrs by MTT assay
Assay type: functional, cell-based
Assay conditions: HepG2, 48 h
Measurement kind: log10(IC50) (log10 of the value in µM)

| Compound | log10(IC50) |
| --- | --- |
| CC[C@@]1(OC(=O)NCCOCCOC2O[C@H](COC(C)=O)[C@@H](OC(C)=O)[C@H](OC(C)=O)[C@H]2OC(C)=O)C(=O)OCc2c1cc1n(c2=O)Cc2cc3ccccc3nc2-1 (single isomer, unassigned) | 0.32 |
| CC[C@@]1(OC(=O)NCCO[C@@H]2O[C@H](CO)[C@H](O)[C@H](O)[C@H]2O)C(=O)OCc2c1cc1n(c2=O)Cc2cc3ccccc3nc2-1 | 0.69 |
| CC[C@@]1(OC(=O)NCCO[C@@H]2O[C@H](COC(C)=O)[C@@H](OC(C)=O)[C@H](OC(N)=O)[C@@H]2OC(C)=O)C(=O)OCc2c1cc1n(c2=O)Cc2cc3ccccc3nc2-1 | 1.27 |
| CC[C@@]1(OC(=O)NCCOCCOCCO[C@@H]2O[C@H](COC(C)=O)[C@@H](OC(C)=O)[C@H](OC(C)=O)[C@H]2OC(C)=O)C(=O)OCc2c1cc1n(c2=O)Cc2cc3ccccc3nc2-1 | -0.15 |
| CC[C@@]1(OC(=O)NCCOCCOCCO[C@@H]2O[C@H](CO)[C@@H](O)[C@H](OC(N)=O)[C@@H]2O)C(=O)OCc2c1cc1n(c2=O)Cc2cc3ccccc3nc2-1 | -0.10 |
| CC[C@@]1(OC(=O)NCCOCCOCCOC2O[C@H](COC(C)=O)[C@@H](OC(C)=O)[C@H](OC(N)=O)[C@@H]2OC(C)=O)C(=O)OCc2c1cc1n(c2=O)Cc2cc3ccccc3nc2-1 (single isomer, unassigned) | 0.26 |
| CC[C@@]1(OC(=O)NCCOCCO[C@@H]2O[C@H](CO)[C@@H](O)[C@H](O)[C@H]2O)C(=O)OCc2c1cc1n(c2=O)Cc2cc3ccccc3nc2-1 | 0.08 |
| CC[C@@]1(OC(=O)NCCOCCOCCO[C@@H]2O[C@H](CO)[C@@H](O)[C@H](O)[C@H]2O)C(=O)OCc2c1cc1n(c2=O)Cc2cc3ccccc3nc2-1 | 0.11 |
| CC[C@@]1(OC(=O)NCCO[C@@H]2O[C@H](COC(C)=O)[C@@H](OC(C)=O)[C@H](OC(C)=O)[C@H]2OC(C)=O)C(=O)OCc2c1cc1n(c2=O)Cc2cc3ccccc3nc2-1 | 1.48 |
| CC[C@@]1(OC(=O)NCCOCCO[C@@H]2O[C@H](CO)[C@H](O)[C@H](O)[C@H]2O)C(=O)OCc2c1cc1n(c2=O)Cc2cc3ccccc3nc2-1 | 0.45 |
| CC[C@@]1(OC(=O)NCCOCCOCCO[C@@H]2O[C@H](CO)[C@@H](O)[C@H](O)[C@@H]2O)C(=O)OCc2c1cc1n(c2=O)Cc2cc3ccccc3nc2-1 | -0.10 |

---

Test system: HepG2
Method: Antitumor activity against human HepG2 cells assessed as inhibition of cell growth measured after 48 hrs by MTT assay
Type: functional, cell-based
Assay conditions: HepG2, 48 h
This listing pairs compounds with measured IC50.

| Compound | Unit info | Lt gt eq | IC50 |
| --- | --- | --- | --- |
| CC[C@@]1(OC(=O)NCCO[C@@H]2O[C@H](CO)[C@@H](O)[C@H](O)[C@@H]2O)C(=O)OCc2c1cc1n(c2=O)Cc2cc3ccccc3nc2-1 | µM | = | 10.3 |
| CC[C@@]1(OC(=O)NCCOCCO[C@@H]2O[C@H](CO)[C@@H](O)[C@H](OC(N)=O)[C@@H]2O)C(=O)OCc2c1cc1n(c2=O)Cc2cc3ccccc3nc2-1 | µM | = | 0.9 |
| CC[C@@]1(OC(=O)NCCOCCO[C@@H]2O[C@H](COC(C)=O)[C@@H](OC(C)=O)[C@H](OC(N)=O)[C@@H]2OC(C)=O)C(=O)OCc2c1cc1n(c2=O)Cc2cc3ccccc3nc2-1 | µM | = | 3.7 |
| CC[C@@]1(O)C(=O)OCc2c1cc1n(c2=O)Cc2cc3ccccc3nc2-1 | µM | = | 0.4 |
| CC[C@@]1(OC(=O)NCCOCCOCCO[C@@H]2O[C@H](COC(C)=O)[C@H](OC(C)=O)[C@H](OC(C)=O)[C@H]2OC(C)=O)C(=O)OCc2c1cc1n(c2=O)Cc2cc3ccccc3nc2-1 | µM | = | 0.7 |
| CC[C@@]1(OC(=O)NCCOCCO[C@@H]2O[C@H](COC(C)=O)[C@H](OC(C)=O)[C@H](OC(C)=O)[C@H]2OC(C)=O)C(=O)OCc2c1cc1n(c2=O)Cc2cc3ccccc3nc2-1 | µM | = | 5.6 |
| CC[C@@]1(OC(=O)NCCOCCOCCO[C@@H]2O[C@H](COC(C)=O)[C@@H](OC(C)=O)[C@H](OC(C)=O)[C@@H]2OC(C)=O)C(=O)OCc2c1cc1n(c2=O)Cc2cc3ccccc3nc2-1 | µM | = | 1.6 |
| CC[C@@]1(OC(=O)NCCOCCOCCO[C@@H]2O[C@H](CO)[C@H](O)[C@H](O)[C@H]2O)C(=O)OCc2c1cc1n(c2=O)Cc2cc3ccccc3nc2-1 | µM | = | 1.2 |
| CC[C@@]1(OC(=O)NCCO[C@@H]2O[C@H](COC(C)=O)[C@H](OC(C)=O)[C@H](OC(C)=O)[C@H]2OC(C)=O)C(=O)OCc2c1cc1n(c2=O)Cc2cc3ccccc3nc2-1 | µM | = | 60.2 |
| CC[C@@]1(OC(=O)NCCO[C@@H]2O[C@H](COC(C)=O)[C@@H](OC(C)=O)[C@H](OC(C)=O)[C@@H]2OC(C)=O)C(=O)OCc2c1cc1n(c2=O)Cc2cc3ccccc3nc2-1 | µM | = | 4.3 |
| CCc1c2c(nc3ccc(OC(=O)N4CCC(N5CCCCC5)CC4)cc13)-c1cc3c(c(=O)n1C2)COC(=O)[C@]3(O)CC | µM | > | 100 |
| CC[C@@]1(OC(=O)NCCO[C@@H]2O[C@H](CO)[C@@H](O)[C@H](OC(N)=O)[C@@H]2O)C(=O)OCc2c1cc1n(c2=O)Cc2cc3ccccc3nc2-1 | µM | = | 11.6 |
| CC[C@@]1(OC(=O)NCCO[C@@H]2O[C@H](CO)[C@@H](O)[C@H](O)[C@H]2O)C(=O)OCc2c1cc1n(c2=O)Cc2cc3ccccc3nc2-1 | µM | = | 3.8 |
| CC[C@@]1(OC(=O)NCCOCCO[C@@H]2O[C@H](CO)[C@@H](O)[C@H](O)[C@@H]2O)C(=O)OCc2c1cc1n(c2=O)Cc2cc3ccccc3nc2-1 | µM | = | 0.3 |
| CC[C@@]1(OC(=O)NCCOCCO[C@@H]2O[C@H](COC(C)=O)[C@@H](OC(C)=O)[C@H](OC(C)=O)[C@@H]2O[C@H]2O[C@H](COC(C)=O)[C@@H](OC(C)=O)[C@H](OC(N)=O)[C@H]2OC(C)=O)C(=O)OCc2c1cc1n(c2=O)Cc2cc3ccccc3nc2-1 | µM | = | 1.6 |
| CC[C@@]1(OC(=O)NCCO[C@@H]2O[C@H](COC(C)=O)[C@@H](OC(C)=O)[C@H](OC(C)=O)[C@@H]2O[C@H]2O[C@H](COC(C)=O)[C@@H](OC(C)=O)[C@H](OC(N)=O)[C@H]2OC(C)=O)C(=O)OCc2c1cc1n(c2=O)Cc2cc3ccccc3nc2-1 | µM | = | 4.2 |
| CC[C@@]1(OC(=O)NCCOCCOC2O[C@H](COC(C)=O)[C@@H](OC(C)=O)[C@H](OC(C)=O)[C@@H]2OC(C)=O)C(=O)OCc2c1cc1n(c2=O)Cc2cc3ccccc3nc2-1 (single isomer, unassigned) | µM | = | 4.8 |
